test system: adenosine deaminase (ADA); assay: ADA-mediated deamination monitored by absorption and emission; format: biochemical; settings: adenosine deaminase (ADA) enzyme reaction
measure: half-life
Include the unit right after the number.

Nc1ncnc2c1ncn2[C@@H]1O[C@H](CO)[C@@H](O)[C@H]1O [A, adenosine] has a reported half-life of 57 s
